A short record of Ki observed with 5-HT1A receptors (Rattus norvegicus) follows.
Sequence (P19327 whole entry): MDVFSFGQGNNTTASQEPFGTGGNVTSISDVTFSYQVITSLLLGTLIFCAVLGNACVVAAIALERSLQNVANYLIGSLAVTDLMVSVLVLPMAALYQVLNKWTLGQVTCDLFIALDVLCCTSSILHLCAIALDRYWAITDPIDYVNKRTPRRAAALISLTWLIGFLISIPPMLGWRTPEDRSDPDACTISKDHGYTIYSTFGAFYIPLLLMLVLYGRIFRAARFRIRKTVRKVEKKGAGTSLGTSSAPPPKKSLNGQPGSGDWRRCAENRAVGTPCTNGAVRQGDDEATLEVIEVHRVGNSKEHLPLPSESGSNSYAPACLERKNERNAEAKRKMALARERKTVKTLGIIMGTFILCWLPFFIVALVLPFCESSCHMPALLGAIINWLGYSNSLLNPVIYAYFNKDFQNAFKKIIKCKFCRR
readout-type: Ki (µM)

Sample records with Ki:
>  <compound>
CC1(CN2CCN(c3cccc4c3OCCO4)CC2)N=C(c2cccnc2)NC1=O (centres unmarked) [Example 40]

>  <output-unit>
µM

>  <recorded-measurement>
0.019

$$$$
>  <compound>
CC(C)Oc1ccccc1N1CCN(Cc2c(N)n(C)n(-c3ccccc3)c2=O)CC1 [Example 8]

>  <output-unit>
µM

>  <recorded-measurement>
0.106

$$$$
>  <compound>
CCCn1c(-c2ccncc2)nn(CN2CCN(c3ccccc3OC)CC2)c1=S [Example 53]

>  <output-unit>
µM

>  <recorded-measurement>
0.117

$$$$

I = Cc1ccccc1N1CCN(CC2(C)N=C(c3ccccc3)NC2=O)CC1 (centres unmarked) [Example 43]
II = C=CCn1c(C)nn(CN2CCN(c3ccccc3OC)CC2)c1=S [Example 59]
III = COCCCn1c(-c2ccncc2)nn(CN2CCN(c3ccccc3OC)CC2)c1=S [Example 50]
IV = Cn1nc(-c2ccccc2)c(CN2CCN(c3cccc4c3OCCO4)CC2)c1N [Example 13]
q: Sort entries by Ki from minimum to maximum value. Submit the labels in the order that the ranking request calls for.
a: IV, II, III, I
